Known Ki of a selection of compounds
target: Cathepsin S (Homo sapiens); assay: Cathepsin S inhibition, fluorogenic peptide substrate kinetic assay; assay type: biochemical
Sequence (P25774 115-331, species assumed): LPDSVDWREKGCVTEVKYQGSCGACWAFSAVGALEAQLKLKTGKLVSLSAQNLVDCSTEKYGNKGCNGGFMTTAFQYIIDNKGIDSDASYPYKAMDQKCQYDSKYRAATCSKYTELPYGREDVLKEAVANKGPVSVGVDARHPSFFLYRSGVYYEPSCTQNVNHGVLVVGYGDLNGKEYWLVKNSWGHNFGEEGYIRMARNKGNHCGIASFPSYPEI

The examples below pair each entry with its known result.
Compound | Measured Target | Ki
C[C@@H](CNc1ccc(OC(F)(F)F)cc1)NC(=O)[C@@H](CC(=O)N1CCOCC1)CC1CCCCC1 [Example 14] | Cathepsin S (Homo sapiens) | < 100 nM
CS(=O)(=O)CC[C@H](CNc1ccc(OC(F)(F)F)cc1)NC(=O)[C@@H](CC(=O)N1CCOCC1)CC1CCCCC1 [Example 29] | Cathepsin S (Homo sapiens) | < 100 nM
O=C(C[C@@H](CC1CCCCC1)C(=O)N1CCOCC1)NCCNc1ccc(F)cc1 [Example 9] | Cathepsin S (Homo sapiens) | 1000 to 10000 nM
CC[C@@H](CNc1ccc(OC(F)(F)F)cc1)NC(=O)[C@H](CCc1ccccc1)CC(=O)N1CCOCC1 [Example 38] | Cathepsin S (Homo sapiens) | < 100 nM
CC(C)[C@@H](CNc1ccc(OC(F)(F)F)cc1)NC(=O)[C@H](CCC1CCCC1)CC(=O)N1CCOCC1 [Example 33] | Cathepsin S (Homo sapiens) | < 100 nM

Respond only with Ki recorded for CC(C)[C@@H](CNc1ccc(OC(F)(F)F)cc1)NC(=O)[C@@H](CC(=O)N1CCOCC1)c1ccc(C(F)(F)F)cc1 [Example 55]
100 to 1000 nM

Specify reported Ki for the compound shown: CC(C)[C@@H](CNc1ccc(OC(F)(F)F)cc1)NC(=O)[C@H](CCCc1ccccc1)CC(=O)N1CCOCC1 [Example 30]
< 100 nM

Recall and state the measured Ki for CCC[C@@H](CNc1ccc(OC(F)(F)F)cc1)NC(=O)[C@@H](CC(=O)N1CCOCC1)CC1CCCC1 [Example 27] .
< 100 nM

Given O=C(N[C@H](CNc1ccc(OC(F)(F)F)cc1)C1CC1)[C@@H](CC(=O)N1CCOCC1)c1ccc(C(F)(F)F)cc1 [Example 70] , respond with its Ki.
100 to 1000 nM

----------
biological target: Cathepsin K (Homo sapiens); assay: Cathepsin K inhibition, fluorogenic peptide substrate kinetic assay (selectivity); type: biochemical; conditions: ratio of cathepsin K inhibition constant to cathepsin S inhibition constant
Sequence (P43235 115-329, species assumed): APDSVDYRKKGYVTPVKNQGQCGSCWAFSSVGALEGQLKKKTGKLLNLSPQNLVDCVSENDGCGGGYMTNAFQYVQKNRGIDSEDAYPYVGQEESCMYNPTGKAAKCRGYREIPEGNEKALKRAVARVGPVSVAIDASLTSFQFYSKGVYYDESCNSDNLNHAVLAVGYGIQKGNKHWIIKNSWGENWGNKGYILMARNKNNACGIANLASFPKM
Reported Property: Selectivity for Cat. S over Cat. K

Record excerpt, results attached:
Compound | Assay Value
CCC1(O)CCCC(C[C@H](CC(=O)N2CCOCC2)C(=O)N[C@@H](C)CNc2ccc(OC(F)(F)F)cc2)C1 (stereo partly shown) [Example 59] | + (+, >10)
C[C@@H]1CN(C(=O)[C@H](CC2CCCCC2)OC(=O)N[C@@H](C)CN2c3ccc(F)cc3CC2(C)C)C[C@H](C)O1 [Example 93] | + (+, >10)
CC(=O)N1CCN(C(=O)C[C@@H](CC2CCCCC2)C(=O)N[C@@H](C)CNc2ccc(OC(F)(F)F)cc2)CC1 [Example 52] | + (+, >10)
CC1(C)CN(C[C@@H](NC(=O)[C@H](CC2CCCCC2)NC(=O)N2CCOCC2)C2CC2)c2ccc(F)cc21 [Example 81] | ++ (++, >100)
O=C(N[C@@H](CCc1ccccc1)CNc1ccc(OC(F)(F)F)cc1)[C@@H](CC(=O)N1CCOCC1)CC1CCCCC1 [Example 23] | + (+, >10)
CS(=O)(=O)CC[C@@H](CNc1ccc(OC(F)(F)F)cc1)NC(=O)[C@H](CC1CCCCC1)NC(=O)N1CCOCC1 [Example 74] | + (+, >10)
COc1ccc([C@H](CC(=O)N2CCOCC2)C(=O)N[C@H](CNc2ccc(OC(F)(F)F)cc2)C(C)C)cc1 [Example 53] | ++ (++, >100)
C[C@@H](CNc1nc2ccccc2s1)NC(=O)[C@H](CC1CCCCC1)NC(=O)N1CCOCC1 [Example 78] | + (+, >10)
C[C@@H](CN1CCc2cc(F)ccc21)NC(=O)[C@H](CC1CCCCC1)OC(=O)N1CCOCC1 [Example 12] | + (+, >10)
O=C(N[C@H](CNc1ccc(OC(F)(F)F)cc1)c1ccccc1)[C@@H](CC(=O)N1CCOCC1)c1ccc(Cl)cc1 [Example 48] | + (+, >10)

Given the compound CCC[C@@H](CNc1ccc(OC(F)(F)F)cc1)NC(=O)[C@@H](CC(=O)N1CCOCC1)CC1CCCC1 [Example 27] , write its reported Selectivity for Cat. S over Cat. K.
+ (+, >10)

Supply Selectivity for Cat. S over Cat. K value. Item: CC(C)[C@@H](CNc1ccc(OC(F)(F)F)cc1)NC(=O)[C@@H](CC(=O)N1CCOCC1)C1CCCCC1 [Example 35]
+ (+, >10)

----------
molecular target: Cathepsin S (Homo sapiens); assay: Cathepsin S inhibition, fluorogenic peptide substrate kinetic assay;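 note: cleavage rate of a coumarin-labelled peptide substrate (50 µM) read as fluorescence increase at Ex 380 nm and Em 450 nm, relative to inhibitor-free control reactions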; format: biochemical; conditions: Cathepsin S inhibition constant; pH5.5, 20 minutes preincubation at room temperature; read-out: Ki Cat. S
Reported Property: Ki

Field: example entries. Status: answers known.
Smiles Record | Reported Property | Assay Value
CC(=O)N1CCN(C(=O)[C@H](CC2CCCCC2)OC(=O)N[C@@H](C)CN2c3ccc(F)cc3CC2(C)C)CC1 | Ki | 1000 to 10000 nM
CC(C)[C@@H](CNc1ccc(OC(F)(F)F)cc1)NC(=O)[C@H](CC(=O)N1CCOCC1)c1ccc(S(C)(=O)=O)cc1 | Ki | 1000 to 10000 nM

Assign Ki to the following record: COc1ccc(NC[C@@H](NC(=O)[C@@H](CC(=O)N2CCOCC2)c2ccc(F)cc2)C(C)C)cn1
100 to 1000 nM

Query Ki for C[C@@H](CNc1ccc(OC(F)(F)F)cc1)NC(=O)[C@@H](CC(=O)N1CCOCC1)c1ccc(F)cc1
100 to 1000 nM

# return recorded Ki for input Cc1cc(NCCNC(=O)[C@H](CCC(C)(C)C)CC(=O)N2CCOCC2)no1
1000 to 10000 nM

For the molecule C[C@@H](CN1c2ccc(F)cc2CC1(C)C)NC(=O)O[C@@H](CC1CCCCC1)C(=O)N1CCSCC1 , report Ki.
1000 to 10000 nM

Given CC1(C)CN(C[C@@H](NC(=O)[C@H](CC2CCCCC2)NC(=O)N2CCOCC2)C2CC2)c2ccc(F)cc21 , respond with its Ki.
< 100 nM

Specify measured Ki for C[C@@H](CNc1nc2ccccc2o1)NC(=O)[C@H](CC1CCCCC1)NC(=O)N1CCOCC1 .
1000 to 10000 nM

Supply reported Ki belonging to this molecule: COc1ccc(NC[C@H](C)NC(=O)[C@H](CC2CCCC2)NC(=O)N2CCOCC2)cc1
< 100 nM

Read the entry COc1ccc(NCCNC(=O)[C@@H](CC(=O)N2CCOCC2)CC2CCCCC2)cc1 and write its reported Ki.
100 to 1000 nM

----------
target: Cathepsin L (Homo sapiens); assay: Cathepsin L inhibition, fluorogenic peptide substrate kinetic assay (selectivity); type: biochemical; details: ratio of cathepsin L inhibition constant to cathepsin S inhibition constant
Sequence (P07711 114-333, species assumed): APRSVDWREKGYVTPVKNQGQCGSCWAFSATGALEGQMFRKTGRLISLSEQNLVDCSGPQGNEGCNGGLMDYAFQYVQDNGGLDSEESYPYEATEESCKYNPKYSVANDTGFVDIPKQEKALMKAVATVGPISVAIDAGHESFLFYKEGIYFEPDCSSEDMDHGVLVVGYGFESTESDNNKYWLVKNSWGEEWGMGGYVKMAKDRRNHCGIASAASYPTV
Reported Property: Selectivity for Cat. S over Cat. L

Recorded Selectivity for Cat. S over Cat. L, per entry:
Compound | Assay Value
COc1ccc(NCCNC(=O)[C@@H](CC(=O)N2CCOCC2)CC2CCCCC2)cc1 [Example 19] | ++ (++, >100)
CCC1(O)CCCC(C[C@H](CC(=O)N2CCOCC2)C(=O)N[C@@H](C)CNc2ccc(OC(F)(F)F)cc2)C1 (some centres unmarked) [Example 59] | + (+, >10)
CCC[C@@H](CNc1ccc(OC(F)(F)F)cc1)NC(=O)[C@@H](CC(=O)N1CCOCC1)c1ccccc1 [Example 39] | ++ (++, >100)
C[C@@H](CN1CC(C)(C)c2cc(F)ccc21)NC(=O)[C@H](CC1CCCCC1)NC(=O)N1CCOCC1 [Example 80] | + (+, >10)
CC(C)[C@@H](CNc1ccc(OC(F)(F)F)cc1)NC(=O)[C@H](CCc1ccccc1)CC(=O)N1CCOCC1 [Example 32] | + (+, >10)
CC1(C)CN([C@H]2COC[C@@H]2NC(=O)O[C@@H](CC2CCCCC2)C(=O)N2CCOCC2)c2ccc(F)cc21 [Example 7] | + (+, >10)
C[C@@H](CNc1ccc(OC(F)(F)F)cc1)NC(=O)[C@H](CS(=O)(=O)Cc1ccccc1)NC(=O)N1CCOCC1 [Example 18] | ++ (++, >100)
C[C@@H](CNc1ccc(OC(F)(F)F)cc1)NC(=O)[C@H](CC1CCCC1)[C@@H](C)C(=O)N1CCOCC1 [Example 16] | + (+, >10)

Report measured Selectivity for Cat. S over Cat. L; entry is O=C(N[C@H](CNc1ccc(OC(F)(F)F)cc1)c1ccccc1)[C@@H](CC(=O)N1CCOCC1)CC1CCCCC1 [Example 45]
++ (++, >100)

Determine its reported Selectivity for Cat. S over Cat. L: C[C@@H](CN1c2ccc(F)cc2CC1(C)C)NC(=O)O[C@@H](CC1CCCCC1)C(=O)N1CCN(S(C)(=O)=O)CC1 [Example 95]
+ (+, >10)

Tell me measured Selectivity for Cat. S over Cat. L for COc1ccc(NC[C@H](C)NC(=O)[C@H](CC2CCCC2)NC(=O)N2CCOCC2)cc1 [Example 73] please.
+ (+, >10)

For the compound CC(C)[C@@H](CNc1ccc(OC(F)(F)F)cc1)NC(=O)[C@H](CC(=O)N1CCOCC1)c1ccc(Cl)cc1 [Example 43] , give its measured Selectivity for Cat. S over Cat. L value.
++ (++, >100)

Look up Selectivity for Cat. S over Cat. L of C[C@@H](CNc1ccc(OC(F)(F)F)cc1)NC(=O)[C@@H](CC(=O)N1CCS(=O)(=O)CC1)CC1CCCCC1 [Example 58] and report it.
+ (+, >10)

Report Selectivity for Cat. S over Cat. L, nothing else, for this compound: C[C@@H](CN1c2ccc(F)cc2CC1(C)C)NC(=O)O[C@@H](CC1CCCCC1)C(=O)N1CCSCC1 [Example 96]
+ (+, >10)

Annotate the compound CC[C@@H](CNc1ccc(OC(F)(F)F)cc1)NC(=O)[C@H](CCC1CCCC1)CC(=O)N1CCOCC1 [Example 36] with its measured Selectivity for Cat. S over Cat. L.
+ (+, >10)

Report measured Selectivity for Cat. S over Cat. L; entry is C[C@@H](CNc1ccc(OC(F)(F)F)cc1)NC(=O)[C@@H](CC(=O)N1CCSCC1)CC1CCCCC1 [Example 51]
+ (+, >10)

# return recorded Selectivity for Cat. S over Cat. L for input C[C@@H](CNc1ccc(OC(F)(F)F)cc1)NC(=O)[C@@H](CC(=O)N1CCOCC1)CC1CCC2(CC1)CC2 [Example 65]
++ (++, >100)
